Attribution: BigSolDB 2.1

- ASSAY_CONTEXT: in ethyl acetate, 318.15 K
QUANTITY_MEASURED: solubility (mole fraction)

- CC(=O)N[C@H](C(=O)O)C(C)C: 0.01

###

- ASSAY_CONTEXT: in dimethyl carbonate, 323.15 K
QUANTITY_MEASURED: solubility (mole fraction)

- CC(=O)N[C@H](C(=O)O)C(C)C: 0.00611

###

- ASSAY_CONTEXT: in water, 313.15 K
QUANTITY_MEASURED: solubility (mole fraction)

- CC(=O)N[C@H](C(=O)O)C(C)C: 0.0116

###

- ASSAY_CONTEXT: in dimethyl carbonate, 318.15 K
QUANTITY_MEASURED: solubility (mole fraction)

- CC(=O)N[C@H](C(=O)O)C(C)C: 0.00489
